I'd appreciate it if you could supply pEC50 values for the items below.
# system under test: T1, Peptide-5 (cysteine pairing not given here; also: biotinylated, site not given here)
# T1 peptide: VDFCKLYNWPVCQT
# assay comment: ELISA, Fab on captured biotin-peptide
Where no end group is shown, it is not given here.
Keep it numeric: pEC50 is minus log10 of the concentration in mol/L.

Req: Respond only with pEC50 recorded for TBD-22 (HC D109A) (Fab, V domains shown, Fab; also called HC D109A mutant) VH: QVQLQQSGSELKKPGASVKVSCKASGYTFTNYGMNWVKQAPGQGLKWMGWINTYTGEPTYTDDFKGRFAFSLDTSVSTAYLQISSLKADDTAVYFCARGGFGSSYWYFAVWGQGSLVTVSS VL: DIQLTQSPSSLSASVGDRVSITCKASQDVSIAVAWYQQKPGKAPKLLIYSASYRYTGVPDRFSGSGSGTDFTLTISSLQPEDFAVYYCQQHYITPLTFGAGTKVEIKR
Resp: 9.05

Req: Respond only with pEC50 recorded for TBD-21 (HC F108A) (Fab, V domains shown, Fab; also called HC F108A mutant) VH: QVQLQQSGSELKKPGASVKVSCKASGYTFTNYGMNWVKQAPGQGLKWMGWINTYTGEPTYTDDFKGRFAFSLDTSVSTAYLQISSLKADDTAVYFCARGGFGSSYWYADVWGQGSLVTVSS VL: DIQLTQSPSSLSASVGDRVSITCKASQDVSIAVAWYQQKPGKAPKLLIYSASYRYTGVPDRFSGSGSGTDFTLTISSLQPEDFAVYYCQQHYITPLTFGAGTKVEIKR
Resp: 7.81

Req: Respond only with pEC50 recorded for TBD-11 (HC R98A) (Fab, V domains shown, Fab; also called HC R98A mutant) VH: QVQLQQSGSELKKPGASVKVSCKASGYTFTNYGMNWVKQAPGQGLKWMGWINTYTGEPTYTDDFKGRFAFSLDTSVSTAYLQISSLKADDTAVYFCAAGGFGSSYWYFDVWGQGSLVTVSS VL: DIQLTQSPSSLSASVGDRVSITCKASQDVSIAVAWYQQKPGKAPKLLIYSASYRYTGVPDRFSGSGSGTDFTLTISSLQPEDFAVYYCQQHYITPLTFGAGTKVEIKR
Resp: 6.63

Req: Respond only with pEC50 recorded for TBD-6 (LC I93A) (Fab, V domains shown, Fab; also called LC I93A mutant) VH: QVQLQQSGSELKKPGASVKVSCKASGYTFTNYGMNWVKQAPGQGLKWMGWINTYTGEPTYTDDFKGRFAFSLDTSVSTAYLQISSLKADDTAVYFCARGGFGSSYWYFDVWGQGSLVTVSS VL: DIQLTQSPSSLSASVGDRVSITCKASQDVSIAVAWYQQKPGKAPKLLIYSASYRYTGVPDRFSGSGSGTDFTLTISSLQPEDFAVYYCQQHYATPLTFGAGTKVEIKR
Resp: 8.00

Req: Respond only with pEC50 recorded for TBD-1 wt (Fab, V domains shown, Fab; the heavy chain entry is VH-CH1; also called wild-type anti-TROP2 Fab (hRS7); TROP2 Fab) VH: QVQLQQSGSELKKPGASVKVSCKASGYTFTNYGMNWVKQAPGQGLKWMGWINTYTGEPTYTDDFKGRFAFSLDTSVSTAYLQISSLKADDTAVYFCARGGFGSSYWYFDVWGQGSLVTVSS VL: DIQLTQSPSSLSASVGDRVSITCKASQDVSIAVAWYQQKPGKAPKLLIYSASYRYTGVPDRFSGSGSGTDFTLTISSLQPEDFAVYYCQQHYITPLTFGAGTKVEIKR
Resp: 7.78

Req: Respond only with pEC50 recorded for TBD-17 (HC S104A) (Fab, V domains shown, Fab; also called HC S104A mutant) VH: QVQLQQSGSELKKPGASVKVSCKASGYTFTNYGMNWVKQAPGQGLKWMGWINTYTGEPTYTDDFKGRFAFSLDTSVSTAYLQISSLKADDTAVYFCARGGFGSAYWYFDVWGQGSLVTVSS VL: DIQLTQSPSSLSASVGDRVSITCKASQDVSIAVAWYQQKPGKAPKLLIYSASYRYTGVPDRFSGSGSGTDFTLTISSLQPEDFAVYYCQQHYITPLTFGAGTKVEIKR
Resp: 8.27
